# MEASURED TARGET: 5-HT reuptake (5-HT transporter) (Rattus norvegicus, UniProt P31652)
# Construct: from tissue; host or cells: Wistar rat brain (procerebrum; crude synaptosomal supernatant)
# Sequence (P31652 whole entry): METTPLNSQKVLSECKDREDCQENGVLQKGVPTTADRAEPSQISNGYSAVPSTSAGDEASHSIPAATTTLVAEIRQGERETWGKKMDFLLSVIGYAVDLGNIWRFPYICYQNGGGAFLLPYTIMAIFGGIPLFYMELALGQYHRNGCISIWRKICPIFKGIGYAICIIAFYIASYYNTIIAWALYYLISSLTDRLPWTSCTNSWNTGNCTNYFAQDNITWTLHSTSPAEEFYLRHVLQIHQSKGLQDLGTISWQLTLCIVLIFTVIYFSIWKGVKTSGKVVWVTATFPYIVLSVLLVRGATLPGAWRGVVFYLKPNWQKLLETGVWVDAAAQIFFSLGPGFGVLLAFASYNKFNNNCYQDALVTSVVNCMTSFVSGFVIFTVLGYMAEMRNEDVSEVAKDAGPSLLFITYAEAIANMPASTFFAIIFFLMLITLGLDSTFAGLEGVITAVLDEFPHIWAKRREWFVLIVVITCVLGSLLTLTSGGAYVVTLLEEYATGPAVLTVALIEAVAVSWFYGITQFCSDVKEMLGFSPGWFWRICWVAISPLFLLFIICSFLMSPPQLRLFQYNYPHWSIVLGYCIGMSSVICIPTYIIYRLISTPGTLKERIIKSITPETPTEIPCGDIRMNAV
# PROTOCOL: Inhibition of 5-HT reuptake in rat brain synaptosome (3H-5-HT uptake)
# Format: biochemical
# TEST SETTINGS: 10 μM, read-out: 5-HT reuptake percent inhibition
# Protocol: All the target compounds were evaluated for their inhibitory activity against the reuptake of 5-HT and NE at the cellular level. Rat brain tissue was used for the uptake test, which included ^3H-5-HT and ^3H-NE [15]. […] Adult male Wistar rats were used. […] The fiberglass filter membrane was washed three times with ice-cold saline, placed in a scintillation vial, and counted in liquid scintillation cocktail (4 mL). […]
inhibition at 10 µM values for the compounds below.
Form field: result (number plus unit)

For orientation, consider the following solved cases.
Fc1ccc(/C(=N\Cc2cccc3ccccc23)N2CCNCC2)cc1 = 84%
O=[N+]([O-])c1ccc(/C(=N\Cc2ccccc2)N2CCNCC2)cc1 = 38%
Clc1ccc(/C(=N\Cc2ccccc2)N2CCNCC2)cc1 = 47%
COc1ccc(/C(=N\Cc2ccccc2)N2CCNCC2)cc1.Cl = 65%
Clc1cccc(/C(=N\Cc2cccc3ccccc23)N2CCNCC2)c1 = 65%
N#Cc1cccc(/C(=N\Cc2ccccc2)N2CCNCC2)c1 = 65%
N#Cc1ccc(/C(=N\Cc2cccc3ccccc23)N2CCNCC2)cc1 = 70%
N#Cc1ccc(/C(=N\Cc2ccc(Cl)cc2)N2CCNCC2)cc1 = 75%

Now let's try a different one.
[ask] Recorded inhibition at 10 µM of `N#Cc1cccc(/C(=N\Cc2ccc(Cl)cc2)N2CCNCC2)c1` , please.
[reply] 82%
